Reference source: PubChem BioAssay (NCATS)

# assay_remarks: Quantitative highthroughput screen to assess conditional lethalithy of NOMO1 cells grown in RPMI1640 with dialyzed fetal bovine serum (RPMI+ds) (AID 1963877); also: nearly all actives have a fitted effect of over 30% in size;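 as to viability: 100% = DMSO control wells and 0% = empty wells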
# test_parameters: NOMO1 in RPMI+dialyzed FBS viability, ATP luminescence, 48 h; series mostly up to 45.8 µM
Inconclusive results are not listed. Calls of active or inactive are those of the source. Calls follow the shape of the dose curve; as a rule, active = well fitted cell-killing curve with a large enough effect; inconclusive = small, poorly fitted or top-dose-only effect; inactive = flat fitted curve, though single readings scatter.
Returns: one label drawn from active, inactive

{"molecule": "Cn1cc(C2=C(c3c4n(c5ccccc35)CCC(CN)C4)C(=O)NC2=O)c2ccccc21 (centres undefined)", "assigned_category": "active"}
{"molecule": "Cn1cc(-c2ccc3nnc(Sc4ccc5ncccc5c4)n3n2)cn1", "assigned_category": "inactive"}
{"molecule": "CN(c1nccc(=O)[nH]1)C1CCN(c2nc3ccccc3n2Cc2ccc(F)cc2)CC1", "assigned_category": "inactive"}

What was the test verdict on CS(=O)c1ccc(-c2nc(-c3ccc(F)cc3)c(-c3ccncc3)[nH]2)cc1 (centres undefined) ?
active

Could you check what this test reported for COc1cc(C(C)C)c2c(c1)S(=O)(=O)N(COc1cc(=O)n3cccc(OCCN4CCCCC4)c3n1)C2=O ?
inactive

* * *

# assay_remarks: Viability qHTS for spleen associated tyrosine kinase inhibitor (SYKi) drug resistant MV4-11 cells (AID 1963824); also: nearly all actives have a fitted effect of over 35% in size
# test_parameters: SYKi-resistant MV4-11 viability, CellTiter-Glo, 72 h; series mostly up to 45 µM
Inconclusive results are not listed. Active and inactive are the calls of the source. The call rests on the fitted dose curve; in most records, active means well fitted cell-killing curve with a large enough effect; inconclusive means small, poorly fitted or top-dose-only effect, or effect the other way; inactive means no such curve, though single readings can be large or run the other way.
Hi! Could you answer with just one of these? active, inactive

{"compound": "CCCn1cc2c(nc(NC(=O)Nc3ccc(OC)cc3)n3nc(-c4ccco4)nc23)n1", "assigned_category": "inactive"}
{"compound": "C=C[C@H]1[C@H](O[C@@H]2O[C@H](CO)[C@@H](O)[C@H](O)[C@H]2O)OC=C(C(=O)OC)[C@H]1C/C=C(/C=O)[C@@H]1C(C(=O)OC)=CO[C@@H](O[C@@H]2O[C@H](CO)[C@@H](O)[C@H](O)[C@H]2O)[C@@H]1C=C", "assigned_category": "inactive"}
{"compound": "C/C=C(\\C)C(=O)OCC1OC(OCC2OC(OC3(CO)OC(CO)C(O)C3O)C(O)C(O)C2O)C(O)C(O)C1O (stereo unspecified)", "assigned_category": "inactive"}
{"compound": "NC(CO)C(=O)NNCc1ccc(O)c(O)c1O (stereo unspecified)", "assigned_category": "active"}
{"compound": "FC1(F)C(F)(F)C(F)(F)C2(F)C(F)(F)C(F)(F)C(F)(F)C(F)(F)C2(F)C1(F)F (stereo unspecified)", "assigned_category": "inactive"}
{"compound": "COc1ccc(/C=C/C(=O)Nc2ccccc2C(=O)O)cc1OC", "assigned_category": "inactive"}
{"compound": "CO[C@H]1/C=C/O[C@@]2(C)Oc3c(C)c(O)c4c(O)c(c5c(nc6cc(C)ccn65)c4c3C2=O)NC(=O)/C(C)=C\\C=C\\[C@H](C)[C@H](O)[C@@H](C)[C@@H](O)[C@@H](C)[C@H](OC(C)=O)[C@@H]1C", "assigned_category": "active"}
{"compound": "O=C1OC(CN2CCOCC2)CN1/N=C/c1ccc([N+](=O)[O-])o1 (stereo unspecified)", "assigned_category": "active"}
{"compound": "CC(C)CC1NC(=O)C(C)NC(=O)C(CC(C)C)OC(=O)CCCNC1=O (stereo unspecified)", "assigned_category": "inactive"}
{"compound": "C=CC(=O)Nc1cc(Nc2nccc(-c3cn(C)c4ccccc34)n2)c(OC)cc1N(C)CCN(C)C", "assigned_category": "active"}

Turning now to a further compound:
Which outcome was assigned to CC(=O)SCC(=O)c1ccc(NS(=O)(=O)c2ccc(OCCCN(C)C)cc2)nc1 in this test?
active

* * *

# assay_remarks: Cellular viability qHTS for adrenocortical cancer (ACC) cell line SW-13 (AID 1963989); also: nearly all actives have a fitted effect of over 65% in size; also: potency is read from the fitted curve at half-maximal effect
# test_parameters: SW-13 ACC cells viability, CellTiter-Glo, 48 h
Results filed as inconclusive are left out. Active and inactive are the calls of the source. Calls come from the whole dose curve; as a rule, active = well fitted cell-killing curve with a large enough effect; inconclusive = small, poorly fitted or top-dose-only effect; inactive = flat fitted curve, though single readings scatter.
property_name: Potency

Please review the entries below; each comes with its answer.
{"molecule": "Fc1cccc(-n2cnc3c(NCc4nc5c(F)c(F)ccc5[nH]4)nc(N4CCOCC4)nc32)c1", "Potency": "0.112 µM (active)"}
{"molecule": "C=CCNC1=C2C[C@@H](C)C[C@H](OC)[C@H](O)[C@@H](C)/C=C(\\C)[C@H](OC(N)=O)[C@@H](OC)/C=C\\C=C(/C)C(=O)NC(=CC1=O)C2=O", "Potency": "3.55 µM (active)"}
{"molecule": "O=C(/C=C\\n1cnc(-c2cc(C(F)(F)F)cc(C(F)(F)F)c2)n1)NNc1cnccn1", "Potency": "12.6 µM (active)"}
{"molecule": "C[C@@H](NC(=O)c1ncnc(N)c1Cl)c1ncc(C(=O)Nc2cc(C(F)(F)F)c(Cl)cn2)s1", "Potency": "20 µM (active)"}

The recorded Potency for entry O=C(CCCCCCNC(=O)c1cnc(N(c2ccccc2)c2ccccc2)nc1)NO equals 15.8 µM (active)

Potency for NS(=O)(=O)c1cccc2c1C(=O)c1cccc(O)c1C2=O is 1.26 µM (active)

// field: Potency; key: CSc1ccc2c(c1)N(CCC1CCCCN1C)c1ccccc1S2 (stereo not drawn) ; value = 16.4 µM (active)

Notebook: COc1cccc2c1C(=O)c1c(O)c3c(c(O)c1C2=O)C[C@@](O)(/C(CO)=N/NC(=O)CCCCCN1C(=O)C=CC1=O)C[C@@H]3O[C@H]1C[C@H](N)[C@H](O)[C@H](C)O1 , Potency read as 3.55 µM (active)

* * *

# assay_remarks: Cellular viability qHTS for adrenocortical cancer (ACC) cell line SW-13 (AID 1963989); also: nearly all actives have a fitted effect of over 65% in size;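 as to activity (max response): cells grown in serum-free medium with ITS supplement; % is scaled to controls: 0 for no effect and ±100 for the full control effect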
# test_parameters: SW-13 ACC cells viability, CellTiter-Glo, 48 h; hits give low values
Inconclusive results are not listed.
property_name: activity (max response) (%)
Note: unit % is implicit; provide only the numeric part.

In the examples that follow, each entry is paired with its recorded activity (max response).
{"compound": "CN1C(=O)C(Cc2c[nH]c3ccccc23)NC1=S (stereo unspecified)", "property_name": "activity (max response)", "number": 7.04}
{"compound": "O=C(CCNC(=O)c1ccc(OC(F)(F)F)cc1)N[C@@H]1CCCc2ccccc21", "property_name": "activity (max response)", "number": -26.4}

Per the records, this compound ( O=C(NCC(O)CO)c1c(I)c(C(=O)NCC(O)CO)c(I)c(N(CCO)C(=O)CO)c1I (stereo unspecified) ) has activity (max response) equal to -7.35

// sample NC(=O)Cc1cccc(C(=O)c2ccccc2)c1N , its activity (max response) was 0.0063

Consider N#CC1(c2ccc(F)cc2)CCC(=O)CC1 . Its measured activity (max response) is 6.7

Measured activity (max response), O=c1ccn([C@@H]2O[C@H](CO)[C@H](O)[C@@H]2F)c(=O)[nH]1 : -7.29

The compound identified as COc1ccc2cc1Oc1cc3c(cc1OC)CC[N+](C)(C)[C@H]3Cc1ccc(cc1)Oc1c(OC)c(OC)cc3c1[C@@H](C2)[N+](C)(C)CC3 registered its activity (max response) at 15.7

Value of activity (max response) reported for the compound O=C(c1ccc(F)cc1)C1CCN(CCn2c(=O)[nH]c3ccccc3c2=O)CC1 is -13.7

GET /value?item= CCNC(=O)Nc1ncc(-c2cc(-c3c(C)cc(OC)cc3C)nc(-c3cnccn3)n2)s1 &field=activity (max response) returns -7.82

activity (max response) measured on CC1(C)O[C@@H]2C[C@H]3[C@@H]4C[C@H](F)C5=CC(=O)CC[C@]5(C)[C@H]4[C@@H](O)C[C@]3(C)[C@]2(C(=O)CO)O1 = 3.69

The reported activity (max response) of the compound Cc1cc2c(cc1C1(c3ccc(C(=O)O)cn3)CC1)C(C)(C)CCC2(C)C was 9.77

activity (max response) measured on O=C(O)Cc1sc(-c2ccccc2)nc1-c1ccc(Cl)cc1 = 0.388

// activity (max response) value for Nc1cc(-c2ccncc2)c[nH]c1=O : 2.68

For reference, reported activity (max response) for CN(C)N(C)C(=O)[C@@]1(Cc2ccccc2)CCCN(C(=O)[C@@H](Cc2c[nH]c3ccccc23)NC(=O)C(C)(C)N)C1 stands at -15.4

* * *

# target_desc: Cytochrome P450 3A7 (Homo sapiens)
# assay_remarks: Cytochrome P450 family 3 subfamily A member 7 (CYP3A7) small molecule antagonists: luciferase biochemical qHTS assay (AID 1963596); also: % is scaled to controls: 0 for no effect and ±100 for the full control effect; nearly all actives have a fitted effect of over 40% in size
# test_parameters: P450-Glo CYP3A7 enzyme luminescence, 1 h; series mostly up to 57.4 µM
Records with an inconclusive call do not appear. The source made the active and inactive calls. The call rests on the fitted dose curve; in most records, active means well fitted inhibition curve with a large enough effect; inconclusive means small, poorly fitted or top-dose-only effect; inactive means no such curve, though single readings can be large or run the other way. *1 amine or outer side, *2 acyl side, *3 side chain or, on linkers, in order; H or OH if unused. Where a SMILES comes first, the peptide text is derived from it. Bridges are numbered along the chain shown (N, C = ends). [ ]: non-standard residue; d: D form. The star is where a group is joined. ξ: configuration not given here. ΔAla(3-NHCONH2) = NC(=O)NC=C(N)C(=O)O; X2 = NC1=NCCC(C(N[*:1])C(=O)[*:2])N1; ξβ3hOrn = NCCCC(N)CC(=O)*; Dap = NC[CH](N)C(=O)O
property_name: activity change, negative = inhibition

Worked examples follow.
{"compound": "NC[C@H]1O[C@H](O[C@H]2[C@H](O[C@@H]3O[C@H](CO)[C@@H](O)[C@H]3O)C(O)[C@H](N)C[C@@H]2N)[C@H](N)[C@@H](O)[C@@H]1O (some centres undefined)", "activity change, negative = inhibition": "16.1% [at 11.5 µM] (inactive)"}
{"compound": "O=C(O)[C@H]1Cc2ccccc2CN1", "activity change, negative = inhibition": "2.34% [at 11.5 µM] (inactive)"}
{"compound": "NCCCNCCSP(=O)(O)O", "activity change, negative = inhibition": "11.1% [at 11.5 µM] (inactive)"}
{"compound": "O=C(O)CN(CCOCCOCCN(CC(=O)O)CC(=O)O)CC(=O)O", "activity change, negative = inhibition": "3.38% [at 0.91 µM] (inactive)"}
{"compound": "NCCNCCNCCNCCN", "activity change, negative = inhibition": "14.5% [at 11.5 µM] (inactive)"}

Record CCn1cc(C(=O)O)c(=O)c2cnc(N3CCCC3)nc21 . Reported activity change, negative = inhibition: 25.3% [at 11.5 µM] (inactive)

Lab note: Nc1ccc(/C=C/c2ccc(N)cc2S(=O)(=O)O)c(S(=O)(=O)O)c1 gave activity change, negative = inhibition of 6.59% [at 0.91 µM] (inactive)

Form field activity change, negative = inhibition, entry NCCCC(N)CC(=O)NCC1NC(=O)C(CO)NC(=O)C(N)CNC(=O)C(C2CCN=C(N)N2)NC(=O)C(=CNC(N)=O)NC1=O (stereo not drawn) (H-[Dap]S[Dap](ξβ3hOrn)[ΔAla(3-NHCONH2)][X2]; lactam 1-C; configuration not given here) : 0.114% [at 0.91 µM] (inactive)

activity change, negative = inhibition reading for C[C@](N)(Cc1ccc(O)cc1)C(=O)O : 1.38% [at 4.83 µM] (inactive)
